System: ACHN renal
assay procedure: NCI tumour cell line growth inhibition, 48 h
parameter measured: GI50

[
  {
    "compound": "CC1(C)N=C(N)N=C(N)N1c1cccc(OCCOc2cccc([N+](=O)[O-])c2)c1",
    "reading": "> 100 µM"
  },
  {
    "compound": "Cc1sc2c(c1C)C(c1ccc(Cl)cc1)=N[C@@H](CC(=O)Nc1ccc(OCCOCCOCCOCCNc3cccc4c3C(=O)N(C3CCC(=O)NC3=O)C4=O)cc1)c1nnc(C)n1-2 (stereo partly drawn)",
    "reading": "0.753 µM"
  },
  {
    "compound": "Cn1cc(S(=O)(=O)N2CCC3=Cc4c(cnn4-c4ccc(F)cc4)C[C@]3(C(=O)c3cc(C(F)(F)F)ccn3)C2)cn1",
    "reading": "> 100 µM"
  }
]

* * *

Test system: PC-3 prostate
assay procedure: NCI tumour cell line growth inhibition, 48 h

[
  {
    "compound": "O=C1C=C(Nc2ccc(S(=O)(=O)Nc3nccs3)cc2)c2ccccc2C1=O",
    "TGI": "> 100 µM"
  },
  {
    "compound": "COc1ccc(-c2nn(-c3cccc(Cl)c3)cc2-c2nc(N)[nH]c(=O)c2C#N)cc1",
    "TGI": "> 100 µM"
  },
  {
    "compound": "C/C=C\\C(CC(=O)NCC(=O)c1c[nH]c2ccccc12)CC(=O)OC (stereo not drawn)",
    "TGI": "> 100 µM"
  }
]

* * *

System: SNB-19 CNS
assay procedure: NCI tumour cell line growth inhibition, 48 h
Parameter: TGI. Scope: all listed entries.
parameter measured: TGI

[
  {
    "smiles repr": "NCCCOc1cc(Cl)ccc1NC(=O)c1cc2ccccc2cc1OCCCN",
    "parameter measured": "TGI",
    "reading": "3.21 µM"
  },
  {
    "smiles repr": "Cc1cc(C)nc(NC(P(=O)(O)O)P(=O)(O)O)n1",
    "parameter measured": "TGI",
    "reading": "> 100 µM"
  },
  {
    "smiles repr": "O=C(NNc1cnccn1)c1nc2cc(F)ccc2n2cccc12",
    "parameter measured": "TGI",
    "reading": "> 100 µM"
  },
  {
    "smiles repr": "COc1cc(/C=C/C(=O)Oc2ccccc2)ccc1C(=O)O/C=C/c1ccccc1",
    "parameter measured": "TGI",
    "reading": "> 100 µM"
  },
  {
    "smiles repr": "C1COCCSC2=C(SCCO1)SC(=C1SC3=C(SCCOCCOCCS3)S1)S2",
    "parameter measured": "TGI",
    "reading": "> 100 µM"
  },
  {
    "smiles repr": "Nc1nc(SCc2ccccc2Cl)c2[nH]cnc2n1",
    "parameter measured": "TGI",
    "reading": "> 100 µM"
  },
  {
    "smiles repr": "Clc1nc(Cl)c2ncn(Cc3ccccc3Cn3cnc4c(Cl)nc(Cl)nc43)c2n1",
    "parameter measured": "TGI",
    "reading": "> 26.1 µM"
  }
]

* * *

System: OVCAR-5 ovarian
assay procedure: NCI tumour cell line growth inhibition, 48 h

[
  {
    "smiles repr": "COc1cc(C(=O)O[C@H](C(N)=O)[C@]2(C)CO2)c2cccc(C)c2c1",
    "unit annotation": "µM",
    "censor symbol": "=",
    "TGI": 6.01
  },
  {
    "smiles repr": "N[C@H](Cc1ccc2oc3cc(=O)c4ccccc4c-3nc2c1)C(=O)O",
    "unit annotation": "µM",
    "censor symbol": ">",
    "TGI": 100
  },
  {
    "smiles repr": "CCOc1cc(NC(C)=O)ccc1C(=O)NNS(=O)(=O)c1ccc(NC(C)=O)cc1",
    "unit annotation": "µM",
    "censor symbol": ">",
    "TGI": 100
  },
  {
    "smiles repr": "CNCCn1c(=O)c2cc(OC)c(OC)cc2c2cnc3cc4c(cc3c21)OCO4",
    "unit annotation": "µM",
    "censor symbol": "=",
    "TGI": 0.304
  },
  {
    "smiles repr": "NCCCOc1cc2ccccc2cc1C(=O)NCCCOc1cc2ccccc2cc1C(=O)Nc1ccc(Cl)cc1O",
    "unit annotation": "µM",
    "censor symbol": "=",
    "TGI": 2.56
  },
  {
    "smiles repr": "NCCCN(CCCN)CCc1cn(C(=O)c2ccccc2)cn1",
    "unit annotation": "µM",
    "censor symbol": "=",
    "TGI": 33.4
  },
  {
    "smiles repr": "CCCn1cnc2c(SCc3ccc(Cl)cc3)nc(N)nc21",
    "unit annotation": "µM",
    "censor symbol": ">",
    "TGI": 100
  }
]
